meta.source: patent US20250388605A1

Measured Kd by item
Target: BRD4-BD2 (Homo sapiens, UniProt O60885)
Assay: Binding affinity to BRD4-BD2 (bromoKdELECT assay)
Settings: 11-point 3-fold dilution series

Some compounds with known Kd results, for comparison:
Cn1cc(-c2cc(C(C)(C)O)ccc2Oc2cccc(CCOC3CCN(c4ncc(C(=O)N[C@H]5C(C)(C)[C@H](Oc6ccc(C#N)c(Cl)c6)C5(C)C)cn4)CC3)c2F)c2cc[nH]c2c1=O [Compound I-147] = < 50 nM
CN(c1ccc(Oc2cccc(OCCN3CCN(c4ncc(C(=O)N[C@H]5C(C)(C)[C@H](Oc6ccc(C#N)c(Cl)c6)C5(C)C)cn4)CC3)c2)c(-c2cn(C)c(=O)c3[nH]ccc23)c1)S(=O)(=O)C1CC1 [Compound I-95] = 50 to 500 nM
Cn1cc(-c2cc(C(C)(C)O)ccc2Oc2cccc(OCCN3CCN(c4ncc(C(=O)N[C@H]5C(C)(C)[C@H](Oc6ccc(C#N)c(Cl)c6)C5(C)C)cn4)CC3)c2)c2cc[nH]c2c1=O [Compound I-96] = 50 to 500 nM
CCS(=O)(=O)c1ccc(OCC(CCCN2CCN(c3ncc(C(=O)NC4C(C)(C)C(Oc5ccc(C#N)c(Cl)c5)C4(C)C)cn3)CC2)C2CC2)c(-c2cn(C)c(=O)c3[nH]ccc23)c1 (stereo not drawn) [Compound I-231] = < 50 nM
CCS(=O)(=O)Cc1ccc(Oc2cccc(OCCN3CCN(c4ncc(C(=O)N[C@H]5C(C)(C)[C@H](Oc6ccc(C#N)c(Cl)c6)C5(C)C)cn4)CC3)c2)c(-c2cn(C)c(=O)c3[nH]ccc23)c1 [Compound I-106] = < 50 nM

Using the record for Cn1cc(-c2ccccc2Oc2cccc(N3CC(N4CCN(c5ncc(C(=O)N[C@H]6C(C)(C)[C@H](Oc7ccc(C#N)c(Cl)c7)C6(C)C)cn5)CC4)C3)c2)c2cc[nH]c2c1=O [Compound I-90] , report its Kd.
> 2500 nM

What Kd value was documented for this compound, Cn1cc(-c2cc(C(C)(C)O)ccc2Oc2cccc(N3CC(N4CCN(c5ncc(C(=O)N[C@H]6C(C)(C)[C@H](Oc7ccc(C#N)c(Cl)c7)C6(C)C)cn5)CC4)C3)c2F)c2cc[nH]c2c1=O [Compound I-92] ?
50 to 500 nM
